Experimental protocol: Microsomal stability in human plasma assessed as half life
Format: ADME, cell-free
half-life reference
Value kind: half-life (min)

Test smiles | Value kind | Meas value
CNC(=O)[C@@]12C[C@@H]1[C@@H](n1cnc3c(NCCc4ccc(OC)c(OC)c4)nc(C#Cc4ccc(Cl)s4)nc31)[C@H](O)[C@@H]2O | half-life | 2
CNC(=O)[C@@]12C[C@@H]1[C@@H](n1cnc3c(NCCc4ccc(OC)c(O)c4)nc(OCC(C)C)nc31)[C@H](O)[C@@H]2O | half-life | 6.51
COc1cc(CCNc2nc(C#Cc3ccccc3)nc3c2ncn3[C@H]2[C@H](O)[C@H](O)[C@@H]3C[C@@H]32)ccc1O | half-life | 16.3

----------
Measured on: CYP2C19 (Homo sapiens, UniProt P33261)
Sequence (P33261 whole entry): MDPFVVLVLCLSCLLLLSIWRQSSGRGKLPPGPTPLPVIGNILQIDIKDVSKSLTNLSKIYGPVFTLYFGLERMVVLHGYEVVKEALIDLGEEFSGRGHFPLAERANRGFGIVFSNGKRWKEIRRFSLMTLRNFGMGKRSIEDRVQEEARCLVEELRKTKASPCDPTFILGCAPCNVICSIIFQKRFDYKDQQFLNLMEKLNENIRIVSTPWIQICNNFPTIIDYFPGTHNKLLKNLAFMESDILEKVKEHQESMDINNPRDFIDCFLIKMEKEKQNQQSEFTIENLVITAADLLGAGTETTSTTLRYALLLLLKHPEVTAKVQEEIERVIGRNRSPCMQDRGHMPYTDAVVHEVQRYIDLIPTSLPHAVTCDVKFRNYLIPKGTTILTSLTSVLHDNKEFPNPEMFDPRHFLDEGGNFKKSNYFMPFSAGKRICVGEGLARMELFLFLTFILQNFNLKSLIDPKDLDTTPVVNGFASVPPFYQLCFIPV
Experimental protocol: Inhibition of CYP2C19 (unknown origin)
Type: ADME
Value kind: IC50

Test smiles | Value kind | Meas value
COc1cc(CCNc2nc(C#Cc3ccccc3)nc3c2ncn3[C@H]2[C@H](O)[C@H](O)[C@@H]3C[C@@H]32)ccc1O | IC50 | > 30 µM

----------
Sequence of the target: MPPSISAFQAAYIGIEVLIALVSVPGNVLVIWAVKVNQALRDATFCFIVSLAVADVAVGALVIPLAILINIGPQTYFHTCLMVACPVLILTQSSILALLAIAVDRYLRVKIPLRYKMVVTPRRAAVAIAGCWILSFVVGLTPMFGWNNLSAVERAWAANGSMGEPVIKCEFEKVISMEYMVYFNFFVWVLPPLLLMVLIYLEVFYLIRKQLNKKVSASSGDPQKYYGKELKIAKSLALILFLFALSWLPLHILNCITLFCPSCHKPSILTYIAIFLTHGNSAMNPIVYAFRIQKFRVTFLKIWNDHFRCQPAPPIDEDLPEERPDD
pKi: −log10 of the molar value.
Value kind: pKi

Test smiles | Value kind | Meas value
CNC(=O)[C@@]12C[C@@H]1[C@@H](n1cnc3c(NCCc4ccccc4)nc(I)nc31)[C@H](O)[C@@H]2O | pKi | 6.24

----------
Measured on: CYP2D6 (Homo sapiens)
Sequence (P10635 whole entry): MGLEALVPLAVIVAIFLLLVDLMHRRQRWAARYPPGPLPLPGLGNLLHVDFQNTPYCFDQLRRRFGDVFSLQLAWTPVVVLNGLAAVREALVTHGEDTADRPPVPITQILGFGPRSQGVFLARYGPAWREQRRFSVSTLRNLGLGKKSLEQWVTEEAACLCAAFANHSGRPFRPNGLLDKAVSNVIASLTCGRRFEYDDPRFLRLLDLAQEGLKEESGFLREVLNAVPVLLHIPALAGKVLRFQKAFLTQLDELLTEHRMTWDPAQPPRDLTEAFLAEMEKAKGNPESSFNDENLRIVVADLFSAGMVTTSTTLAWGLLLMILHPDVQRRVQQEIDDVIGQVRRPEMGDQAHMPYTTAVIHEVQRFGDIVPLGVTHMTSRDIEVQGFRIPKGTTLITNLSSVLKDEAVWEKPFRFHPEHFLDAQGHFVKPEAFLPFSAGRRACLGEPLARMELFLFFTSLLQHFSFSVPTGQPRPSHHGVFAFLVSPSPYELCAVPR
Experimental protocol: Inhibition of CYP2D6 (unknown origin)
Format: ADME
pIC50: −log10 of the molar value.

Test smiles | pIC50
COc1cc(CCNc2nc(C#Cc3ccccc3)nc3c2ncn3[C@H]2[C@H](O)[C@H](O)[C@@H]3C[C@@H]32)ccc1O | < 4.52

----------
Measured on: Adenosine receptor A1 (Homo sapiens)
Sequence (whole entry): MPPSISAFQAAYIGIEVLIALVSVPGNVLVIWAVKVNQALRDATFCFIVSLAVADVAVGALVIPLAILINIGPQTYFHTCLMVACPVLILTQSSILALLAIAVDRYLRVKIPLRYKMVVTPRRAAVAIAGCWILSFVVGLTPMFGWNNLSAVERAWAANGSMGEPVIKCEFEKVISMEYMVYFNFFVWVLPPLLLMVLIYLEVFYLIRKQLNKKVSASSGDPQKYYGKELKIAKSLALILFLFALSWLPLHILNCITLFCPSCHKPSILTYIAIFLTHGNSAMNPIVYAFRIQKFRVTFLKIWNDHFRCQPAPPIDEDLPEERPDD
Experimental protocol: Binding affinity to human adenosine A1A receptor expressed in human HEK293 cell membrane at 10 uM by radioligand inhibition assay
Type: cell membranes
inhibition reference
Value kind: inhibition (%)

Test smiles | Meas value
CNC(=O)[C@@]12C[C@@H]1[C@@H](n1cnc3c(NCCc4ccc(O)c(OC)c4)nc(I)nc31)[C@H](O)[C@@H]2O | 46
CNC(=O)[C@@]12C[C@@H]1[C@@H](n1cnc3c(NCCc4ccccc4)nc(C#Cc4ccc(Cl)s4)nc31)[C@H](O)[C@@H]2O | 4
COc1cc(CCNc2nc(OCC(C)C)nc3c2ncn3[C@H]2[C@H](O)[C@H](O)[C@@H]3C[C@@H]32)ccc1O | 4
CNC(=O)[C@@]12C[C@@H]1[C@@H](n1cnc3c(NCCc4ccc(OC)c(O)c4)nc(C#Cc4ccc(Cl)s4)nc31)[C@H](O)[C@@H]2O | 0
CNC(=O)[C@@]12C[C@@H]1[C@@H](n1cnc3c(NCCc4ccccc4)nc(C#Cc4ccccc4Cl)nc31)[C@H](O)[C@@H]2O | 27

----------
Experimental protocol: Microsomal stability in mouse plasma assessed as half life
Format: ADME, cell-free
Value kind: half-life (min)

Test smiles | Reading unit | Meas value
COc1cc(CCNc2nc(C#Cc3ccccc3)nc3c2ncn3[C@H]2[C@H](O)[C@H](O)[C@@H]3C[C@@H]32)ccc1O | min | 7.92
CNC(=O)[C@@]12C[C@@H]1[C@@H](n1cnc3c(NCCc4ccc(OC)c(O)c4)nc(OCC(C)C)nc31)[C@H](O)[C@@H]2O | min | 9.15
CNC(=O)[C@@]12C[C@@H]1[C@@H](n1cnc3c(NCCc4ccc(OC)c(OC)c4)nc(C#Cc4ccc(Cl)s4)nc31)[C@H](O)[C@@H]2O | min | 6.72

----------
Experimental protocol: Half life in Wistar rat at 0.5 mg/kg, iv
Type: ADME, organism-based
Conditions: in vivo
half-life reference

Test smiles | half-life
COc1cc(CCNc2nc(C#Cc3ccccc3)nc3c2ncn3[C@H]2[C@H](O)[C@H](O)[C@@H]3C[C@@H]32)ccc1O | 16.4 min
CNC(=O)[C@@]12C[C@@H]1[C@@H](n1cnc3c(NCCc4ccc(OC)c(O)c4)nc(OCC(C)C)nc31)[C@H](O)[C@@H]2O | 101 min
CNC(=O)[C@@]12C[C@@H]1[C@@H](n1cnc3c(NCCc4ccc(OC)c(OC)c4)nc(C#Cc4ccc(Cl)s4)nc31)[C@H](O)[C@@H]2O | 43.9 min

----------
Experimental protocol: Aqueous solubility of compound at pH 7.4
Format: physicochemical
Conditions: aqueous, read-out: solubility

Test smiles | solubility
COc1cc(CCNc2nc(C#Cc3ccccc3)nc3c2ncn3[C@H]2[C@H](O)[C@H](O)[C@@H]3C[C@@H]32)ccc1O | 0.013 mg/mL

----------
Measured on: Adenosine receptor A1 (Mus musculus)
Sequence (Q60612 whole entry): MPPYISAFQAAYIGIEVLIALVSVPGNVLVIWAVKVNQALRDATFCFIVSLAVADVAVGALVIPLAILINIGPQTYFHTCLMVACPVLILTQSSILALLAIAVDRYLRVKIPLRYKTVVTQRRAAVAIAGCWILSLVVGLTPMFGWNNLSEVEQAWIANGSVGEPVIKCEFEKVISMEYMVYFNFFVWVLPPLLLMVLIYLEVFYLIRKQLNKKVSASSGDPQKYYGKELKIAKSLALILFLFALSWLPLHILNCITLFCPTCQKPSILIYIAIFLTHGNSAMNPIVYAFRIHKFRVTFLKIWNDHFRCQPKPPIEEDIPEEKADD
pKi: −log10 of the molar value.
Value kind: pKi

Test smiles | Meas value
CNC(=O)[C@@]12C[C@@H]1[C@@H](n1cnc3c(NCCc4ccccc4)nc(I)nc31)[C@H](O)[C@@H]2O | 6.57
CNC(=O)[C@@]12C[C@@H]1[C@@H](n1cnc3c(NCCc4ccc(O)c(OC)c4)nc(C#Cc4ccc(Cl)s4)nc31)[C@H](O)[C@@H]2O | 8.43
CNC(=O)[C@@]12C[C@@H]1[C@@H](n1cnc3c(NCCc4ccc(OC)c(O)c4)nc(OCCC(C)C)nc31)[C@H](O)[C@@H]2O | 6.32
